- test_target: α4β7 (Homo sapiens, UniProt P13612+P26010)
- Construct: α4β7 expressing cells (RPMI-8866); endogenous in cells; host or cells: RPMI 8866
- Sequence (P13612 34-1032): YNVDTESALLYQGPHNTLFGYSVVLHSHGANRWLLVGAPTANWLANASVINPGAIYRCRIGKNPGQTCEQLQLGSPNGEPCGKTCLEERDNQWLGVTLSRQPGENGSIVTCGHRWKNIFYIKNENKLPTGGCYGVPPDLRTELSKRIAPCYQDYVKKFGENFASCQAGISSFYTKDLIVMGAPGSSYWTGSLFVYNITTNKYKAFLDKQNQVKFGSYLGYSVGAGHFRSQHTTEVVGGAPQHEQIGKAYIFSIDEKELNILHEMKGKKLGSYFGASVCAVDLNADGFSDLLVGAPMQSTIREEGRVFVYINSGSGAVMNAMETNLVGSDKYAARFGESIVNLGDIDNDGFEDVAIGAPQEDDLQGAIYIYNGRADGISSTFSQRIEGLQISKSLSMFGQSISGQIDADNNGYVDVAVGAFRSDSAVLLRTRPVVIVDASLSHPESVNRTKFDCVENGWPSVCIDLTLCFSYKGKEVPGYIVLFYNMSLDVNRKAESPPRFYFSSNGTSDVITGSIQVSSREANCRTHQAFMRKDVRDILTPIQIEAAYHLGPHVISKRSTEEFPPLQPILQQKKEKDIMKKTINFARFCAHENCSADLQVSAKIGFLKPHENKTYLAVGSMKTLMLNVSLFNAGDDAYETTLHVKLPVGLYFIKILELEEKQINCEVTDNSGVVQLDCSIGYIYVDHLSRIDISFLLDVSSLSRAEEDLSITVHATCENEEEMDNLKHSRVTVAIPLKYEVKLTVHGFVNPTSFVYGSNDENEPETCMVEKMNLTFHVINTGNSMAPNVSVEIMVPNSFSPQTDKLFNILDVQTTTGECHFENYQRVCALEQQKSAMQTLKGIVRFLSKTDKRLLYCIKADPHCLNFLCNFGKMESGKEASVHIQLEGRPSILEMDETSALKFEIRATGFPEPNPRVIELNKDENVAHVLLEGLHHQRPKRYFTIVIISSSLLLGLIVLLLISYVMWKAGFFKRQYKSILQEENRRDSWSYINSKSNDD
- Sequence (P26010 20-798): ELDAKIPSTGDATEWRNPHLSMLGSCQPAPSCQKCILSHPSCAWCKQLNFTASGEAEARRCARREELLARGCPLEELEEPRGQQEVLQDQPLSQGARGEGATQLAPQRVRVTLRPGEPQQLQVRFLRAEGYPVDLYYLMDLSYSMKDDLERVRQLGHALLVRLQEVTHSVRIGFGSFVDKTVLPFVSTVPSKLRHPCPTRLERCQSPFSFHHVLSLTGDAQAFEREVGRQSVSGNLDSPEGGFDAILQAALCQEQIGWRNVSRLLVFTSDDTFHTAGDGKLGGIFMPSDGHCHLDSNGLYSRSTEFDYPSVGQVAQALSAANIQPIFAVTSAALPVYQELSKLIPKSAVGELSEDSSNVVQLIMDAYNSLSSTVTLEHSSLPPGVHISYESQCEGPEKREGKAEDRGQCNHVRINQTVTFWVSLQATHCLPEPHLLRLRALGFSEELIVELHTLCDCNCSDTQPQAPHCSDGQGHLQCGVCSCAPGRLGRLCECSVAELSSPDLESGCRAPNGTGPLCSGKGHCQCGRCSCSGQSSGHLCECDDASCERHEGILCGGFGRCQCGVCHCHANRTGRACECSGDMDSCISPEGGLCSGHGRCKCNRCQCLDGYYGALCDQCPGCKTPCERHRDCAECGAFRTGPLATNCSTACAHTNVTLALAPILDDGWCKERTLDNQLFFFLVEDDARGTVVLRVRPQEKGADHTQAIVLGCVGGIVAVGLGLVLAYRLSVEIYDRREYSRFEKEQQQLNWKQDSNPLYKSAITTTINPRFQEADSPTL
- assay_notes: Cell-based ligand binding assay (LBA), RPMI 8866 cells in competition with soluble MAdCAM-1-Fc
- test_context: MAdCAM-1-Fc Dylight 650, flow cytometry, read-out: LB Assay (Example 6) IC50
Listing: IC50 of selected compounds

>  <compound>
Cc1cc(-c2c(C)cc(F)cc2C)cc([C@H](CC(=O)O)NC(=O)[C@H](CC(C)C)n2cc(CCN(C)C)cc(C(F)F)c2=O)c1F [I-P2]

>  <IC50>
≤ 10 nM

$$$$
>  <compound>
Cc1cc(C)c(-c2cc(C(F)(F)F)c(F)c([C@H](CC(=O)O)NC(=O)[C@H](CC(C)C)n3cc(CCN4CCC4)c(C(F)(F)F)cc3=O)c2F)c(C)c1 [IG-P2]

>  <IC50>
10 to 500 nM

$$$$
>  <compound>
Cc1cc(C)c(-c2cc(C3CC3)c(F)c([C@H](CC(=O)O)NC(=O)[C@H](CC(C)C)n3cc(CCN4CCC4)c(C(F)(F)F)cc3=O)c2F)c(C)c1 [HM-P2]

>  <IC50>
≤ 10 nM

$$$$
>  <compound>
Cc1cc(C)c(-c2cc(C(F)(F)F)c(F)c([C@H](CC(=O)O)NC(=O)[C@H](CC(C)C)n3cc(CCN(C)C)c(C(F)(F)F)cc3=O)c2F)c(C)c1 [IF-P2]

>  <IC50>
10 to 500 nM

$$$$
>  <compound>
Cc1cc(F)cc(C)c1-c1cc(C(F)(F)F)c(F)c([C@H](CC(=O)O)NC(=O)[C@H](CC(C)C)n2cc(CCCN(C)C)c(C(F)(F)F)cc2=O)c1F [HW-P2]

>  <IC50>
≤ 10 nM

$$$$
>  <compound>
Cc1cc(C2CC2)cc(C)c1-c1cc(C(F)(F)F)c(F)c([C@H](CC(=O)O)NC(=O)[C@H](CC(C)C)n2cc(CCCN(C)C)c(C(F)(F)F)cc2=O)c1F [HU-P2]

>  <IC50>
10 to 500 nM

$$$$
>  <compound>
Cc1cc(C)c(-c2cc(C)c(F)c([C@H](CC(=O)O)NC(=O)[C@H](CC(C)C)n3cc(CCCN(C)C)c(C(F)(F)F)cc3=O)c2F)c(C)c1F [IW-P2]

>  <IC50>
10 to 500 nM

$$$$
>  <compound>
Cc1cc(C)c(-c2cc(C(F)(F)F)c(F)c([C@H](CC(=O)O)NC(=O)[C@H](CC(C)C)n3cc(CCCN(C)C)c(C(F)(F)F)cc3=O)c2F)c(C)c1 [HZ-P2]

>  <IC50>
10 to 500 nM

$$$$
>  <compound>
Cc1ccn([C@@H](NC(C)C)C(=O)N[C@@H](CC(=O)O)c2cncc(-c3c(C)cccc3C)c2)c(=O)c1 [Example C-7, reference compound]

>  <IC50>
≤ 10 nM

$$$$
>  <compound>
Cc1cc(F)c(C)c(C)c1-c1cc(C(F)(F)F)c(F)c([C@H](CC(=O)O)NC(=O)[C@H](CC(C)C)n2cc(CCN3CCC3)c(C(F)(F)F)cc2=O)c1F [KT-P2]

>  <IC50>
10 to 500 nM

$$$$
